These entries and their values trace back to ChEMBL document CHEMBL3044918.

- System: Cenchrus americanus
- test-description: Induction of systemic acquired resistance against Sclerospora graminicola in Cenchrus americanus cultivar 7042S assessed as protection against downy mildew disease at 20 mM applied to seeds prior to sowing followed by inoculation on 2 day old seedling measured on day 30 in green house conditions (reference value: 3%)
- Format: functional

# compound, target-or-test-system, Activity, %
data = [
    ("Cc1ncc(CO)c(CO)c1O [PYRIDOXINE]", "Cenchrus americanus", 44),
    ("O=C(O)CCCC[C@@H]1SC[C@@H]2NC(=O)N[C@@H]21 [BIOTIN]", "Cenchrus americanus", 51),
    ("O=C(O)c1cccnc1 [NIACIN]", "Cenchrus americanus", 63),
    ("Nc1nc(=O)c2nc(CNc3ccc(C(=O)N[C@@H](CCC(=O)O)C(=O)O)cc3)cnc2[nH]1 [FOLIC ACID]", "Cenchrus americanus", 42),
    ("CC1(S(=O)(=O)[O-])CC(=O)c2ccccc2C1=O.[Na+] (stereo unspecified) [MENADIONE SODIUM BISULPHITE]", "Cenchrus americanus", 73),
    ("Cc1cc2nc3c(=O)[nH]c(=O)nc-3n(C[C@H](O)[C@H](O)[C@H](O)CO)c2cc1C [RIBOFLAVIN]", "Cenchrus americanus", 62),
]
